- tested.target: EGFR Exon19Del (Homo sapiens, UniProt P00533, DEL746-750)
- Construct: purchased Carna Bio
- Sequence (P00533 with tags, fused parts or gaps DEL746-750 limits assumed): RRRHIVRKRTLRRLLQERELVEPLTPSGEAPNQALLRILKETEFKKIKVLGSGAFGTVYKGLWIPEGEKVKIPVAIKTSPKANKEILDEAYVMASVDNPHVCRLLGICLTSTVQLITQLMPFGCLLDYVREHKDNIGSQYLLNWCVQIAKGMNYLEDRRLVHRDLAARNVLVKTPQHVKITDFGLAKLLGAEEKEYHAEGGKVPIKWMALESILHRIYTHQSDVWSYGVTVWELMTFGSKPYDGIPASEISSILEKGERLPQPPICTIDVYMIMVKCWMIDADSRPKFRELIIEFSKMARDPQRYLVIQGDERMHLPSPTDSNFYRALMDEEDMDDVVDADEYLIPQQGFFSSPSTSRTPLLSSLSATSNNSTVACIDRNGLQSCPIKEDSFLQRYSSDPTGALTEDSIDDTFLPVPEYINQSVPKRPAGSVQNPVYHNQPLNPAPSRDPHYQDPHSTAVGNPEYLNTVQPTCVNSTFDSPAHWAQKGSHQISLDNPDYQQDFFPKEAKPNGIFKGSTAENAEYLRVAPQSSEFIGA
- experiment.notes: Inhibition of EGFR Exon19Del biochemical enzymatic activity (HTRF)
- settings: EGFR Del19, 1 mM ATP, 1 h, room temperature, read-out: IC50 @Del19
measured.endpoint: IC50

Worked set:
C[C@@H]1CCCOc2c(cnn2C)-c2cc(cn(C)c2=O)C(=O)Nc2nc3ccc(N4CC5(CN(C)CCO5)C4)cc3n2C1 ... 4.5 nM
CC1CCCCOc2c(cnn2C)-c2cc(cn(C)c2=O)C(=O)Nc2nc3ccc(N4CCN(C)CC4)cc3n21 (stereo not drawn) ... 22 nM
Cn1ncc2c1OCCN1CC3CCC(C3)(C1)n1c(nc3ccc(N4CCC(N5CC(F)C5)C4)cc31)NC(=O)c1cc-2c(=O)n(C)c1 (single isomer, unassigned) [Example A94B2] ... 8.9 nM
CN1CCC12CCN(c1ccc3nc4n(c3c1)C13CCC(CN(CCOc5c(cnn5C)-c5cc(cn(C)c5=O)C(=O)N4)C1)C3)CC2 (single isomer, unassigned) [Example A67A] ... 1020 nM
CC(C)N1CCN(c2ccc3nc4n(c3c2)C[C@H](C)CCCOc2c(cnn2C)-c2cc(cn(C)c2=O)C(=O)N4)CC1 ... 2.4 nM

Request: Value lookup for IC50; key = C[C@@H]1CCCOc2c(cnn2C)-c2cc(cn(C)c2=O)C(=O)Nc2nc3ccc(N4CC5(CN(C)C5)C4)cc3n2C1
Result: 4.4 nM
